Recorded pEC50 by entry
# Study target: T1, human CCR8 (human, UniProt P51685 1-355)
# T1 construct: whole, on cells; also called hCCR8
# T1 sequence (P51685 whole entry): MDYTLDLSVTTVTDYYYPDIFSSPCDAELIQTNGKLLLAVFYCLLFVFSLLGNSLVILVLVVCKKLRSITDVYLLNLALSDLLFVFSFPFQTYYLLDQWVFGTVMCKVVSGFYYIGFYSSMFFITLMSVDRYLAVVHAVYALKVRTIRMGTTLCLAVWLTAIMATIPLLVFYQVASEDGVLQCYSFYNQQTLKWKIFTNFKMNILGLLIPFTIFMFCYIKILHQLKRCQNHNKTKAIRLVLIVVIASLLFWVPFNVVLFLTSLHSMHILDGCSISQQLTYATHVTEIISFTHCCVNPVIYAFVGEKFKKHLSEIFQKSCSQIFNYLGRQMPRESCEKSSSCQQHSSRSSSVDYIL
# Procedure text: FACS on HEK293-human CCR8 cells
pEC50: −log10 of the molar value.

Binder	pEC50
Hu348-8 (antibody, V domains shown, humanized IgG) VH: EVQLVESGGGLVQPGGSLKLSCATSGFSFSNYRMHWLRQASGKGLEWVGVITVKSDNYGANYAASVKGRFTISRDDSKNTAYLQMNSLKTEDTAVYYCSSLGRVAYWGQGTLVTVSS VL: DIQMTQSPSSVSASVGDRVTITCKASQNVDTNVVWYQQKPGQSPKALIYSASSRYSGVPDRFSGSGSGTDFTLTISSLQPEDFATYYCQQHNSFPLTFGQGTKLEIK	9.84
CM348 (antibody, V domains shown, CM348 is not defined in words; also called CM348 HuIgG1; parental antibody CM348) VH: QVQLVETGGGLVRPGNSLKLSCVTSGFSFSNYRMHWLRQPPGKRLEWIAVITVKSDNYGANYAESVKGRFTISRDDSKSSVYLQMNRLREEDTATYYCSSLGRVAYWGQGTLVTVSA VL: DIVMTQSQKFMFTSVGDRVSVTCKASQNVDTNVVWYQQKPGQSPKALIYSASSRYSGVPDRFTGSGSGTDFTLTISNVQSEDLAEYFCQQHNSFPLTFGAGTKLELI	10.04
Hu348-2 (antibody, V domains shown, humanized IgG) VH: EVQLVESGGGLVQPGGSLKLSCATSGFSFSNYRMHWLRQASGKGLEWVGVITVKSDNYGANYAASVKGRFTISRDDSKSSVYLQMNSLKTEDTAVYYCSSLGRVAYWGQGTLVTVSS VL: DIQMTQSPSSVSASVGDRVTITCKASQNVDTNVVWYQQKPGKAPKALIYSASSRYSGVPDRFSGSGSGTDFTLTISSLQPEDFATYYCQQHNSFPLTFGQGTKLEIK	9.92

meta.source: patent US20250034266A1
